Data provenance is patent US6727076B2.

System: E. coli strain 14445 (MG1655 himA); also: key: '+' indicates that the organism tested was capable of utilizing the carbon source listed; '−' indicates that the organism tested was not capable of utilizing the carbon source listed; 'w' indicates weak positive reactions
Assay type: cell-based
Measured parameter: carbon source utilization

// solved cases for carbon source utilization follow
CC(O)CO (centres unmarked)
−
O=C(O)CC(O)C(=O)O (racemic)
+
O=C(O)C[C@H](O)C(=O)O
+
O=P(O)(O)OCC(O)CO (racemic) [D,L-α-glycerol phosphate]
−
O=P(O)(O)O[C@H]1O[C@H](CO)[C@@H](O)[C@H](O)[C@H]1O [Glucose-1-phosphate]
+

Measured carbon source utilization, OC[C@H]1O[C@H](O[C@H]2O[C@H](CO)[C@@H](O)[C@H](O)[C@H]2O)[C@H](O)[C@@H](O)[C@@H]1O : +

Short answer for N[C@@H](C(=O)O)[C@@H](O)[C@H](O)[C@H](O)CO : carbon source utilization was −

The recorded carbon source utilization for NCCO is −

// CO[C@H]1O[C@H](CO)[C@H](O)[C@H](O)[C@H]1O [α-methyl galactoside] : carbon source utilization value = +

get_value(item= O=C(O)C[C@@H](O)C(=O)O , readout=carbon source utilization) returns +

# compound O=C(O)Cc1ccc(O)cc1 [P-hydroxy phenylacetic acid] ; its carbon source utilization = −

Sample OC[C@@H](O)[C@H](O)[C@H](O)[C@@H](O)CO ; carbon source utilization observed: −

Data point: C[C@H](O)C(=O)O ; carbon source utilization = +

Looking up OC[C@H]1O[C@H](OCC2O[C@@H](O)[C@H](O)[C@@H](O)[C@@H]2O)[C@H](O)[C@@H](O)[C@H]1O (some centres unmarked) , I found its carbon source utilization recorded as +

// recorded carbon source utilization for O=C1O[C@H]([C@@H](O)CO)[C@@H](O)[C@@H]1O : +

Item: COC1OC(CO)C(O)C(O)C1O (stereo not drawn) [β-methyl glucoside] | carbon source utilization: +

# compound O=C1O[C@@H]([C@H](O)CO)[C@H](O)[C@H]1O ; its carbon source utilization = +
